meta.source: patent US9238034B2

- tested_system: Fn14-TWEAK binding (Homo sapiens, UniProt Q9NP84)
- Construct: the human Fc fragment-tagged Fn14 extracellular domain (R&D Systems) was captured; purchased R&D Systems (Fn14-Fc); Peprotech (recombinant TWEAK)
- Sequence (Q9NP84 28-80 limits assumed): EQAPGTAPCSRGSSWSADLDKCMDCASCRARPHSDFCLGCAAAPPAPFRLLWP
- experimental_details: Double sandwich ELISA small molecule screening of TWEAK binding to captured Fn14-Fc
- assay_context: Table 4, second screening iteration, 25 μM, replicate 2; read-out: % Reduction in TWEAK Binding, Data 2
Parameter: inhibition at 25 µM. Scope: all listed entries.
Report the value in % with no unit label.

Worked set:
# molecule, units_label, inhibition at 25 µM
data = [
    ("CCC(=O)Nc1ccccc1-c1ccccc1NC(=O)CC [Compound 4478-7056]", "%", 18),
    ("CCCSc1nnc(-c2ccccc2NC(=O)CC)c(O)n1 [Compound 5511-0142]", "%", 13.8),
    ("O=C(CSc1nnc(-c2ccccc2)c(-c2ccccc2)n1)Nc1ccc(S(=O)(=O)Nc2nccs2)cc1 [Compound 4981-0539]", "%", 12.2),
]

Need inhibition at 25 µM, item COc1cccc(NC(=O)CSc2nnc(-c3ccc(Cl)cc3)c(-c3ccc(Cl)cc3)n2)c1 [Compound K216-0957]
24.3
